experiment: In vivo bioavailability, rat; settings: in vivo, po, 20 mg/kg p.o.
EXPERIMENTAL READOUT: Cmax (µM)
# output: bare number, implied unit µM

So what does the record say about Cmax for Cc1nc(COc2ccc(C[C@H](NC(=O)O[C@H]3CO[C@H]4OCC[C@H]43)[C@H](O)CN(CC(C)C)S(=O)(=O)c3ccc4occc4c3)cc2)cs1 [Compound D] ? 3.51

====

target: HIV protease Mutant 8 (Human immunodeficiency virus type 1); test: HIV protease inhibitory activity, Mutant 8; conditions: Mutant 8 protease
pKi: −log10 of the molar value.
EXPERIMENTAL READOUT: pKi

What value of pKi has been recorded for this entry: Cc1nc(COc2ccc(C[C@H](NC(=O)O[C@H]3CO[C@H]4OCC[C@H]43)[C@H](O)CN(CC(C)C)S(=O)(=O)c3ccc4c(c3)OCO4)cc2)cs1 [GW0385, reference compound] > 10.30

What pKi value was documented for this compound, "Cc1nc(COc2ccc(C[C@H](NC(=O)O[C@H]3CO[C@H]4OCC[C@H]43)[C@H](O)CN(CC(C)C)S(=O)(=O)c3ccc4occc4c3)cc2)cs1" ? > 10.30

====

experiment: In vivo bioavailability, rat; conditions: in vivo, po, 20 mg/kg p.o.
EXPERIMENTAL READOUT: bioavailability (%)
Give the quantity in %, number only.

Form field: reported bioavailability of "Cc1nc(COc2ccc(C[C@H](NC(=O)O[C@H]3CO[C@H]4OCC[C@H]43)[C@H](O)CN(CC(C)C)S(=O)(=O)c3ccc4occc4c3)cc2)cs1" 92

====

biological target: HIV protease Mutant 9 (Human immunodeficiency virus type 1, UniProt P04585); assay: HIV protease inhibitory activity, Mutant 9; assay type: biochemical; conditions: Mutant 9 protease
EXPERIMENTAL READOUT: Ki (nM)
Response body: numeric value in nM, unit text excluded.

So what Ki did Cc1nc(COc2ccc(C[C@H](NC(=O)O[C@H]3CO[C@H]4OCC[C@H]43)[C@H](O)CN(CC(C)C)S(=O)(=O)c3ccc4c(c3)OCO4)cc2)cs1 [GW0385, reference compound] get with HIV protease Mutant 9 (Human immunodeficiency virus type 1, UniProt P04585)? 0.13

Report Ki for Cc1nc(COc2ccc(C[C@H](NC(=O)O[C@H]3CO[C@H]4OCC[C@H]43)[C@H](O)CN(CC(C)C)S(=O)(=O)c3ccc4occc4c3)cc2)cs1 [Compound D] tested on HIV protease Mutant 9 (Human immunodeficiency virus type 1, UniProt P04585). 0.055

====

tested on: HIV-1 Mutant 8; test: Antiviral activity, in vitro drug sensitivity of HIV-1 isolates, Mutant 8; type: cell-based; conditions: Human immunodeficiency virus 1, read-out: Antiviral activity IC50 Mutant 8
So I've got a bunch of compounds here, and I need their pIC50 values.
When answering, recall that pIC50 equals minus log10 of the concentration in mol/L, and write that number alone.

// lookup pIC50 for Cc1nc(COc2ccc(C[C@H](NC(=O)O[C@H]3CO[C@H]4OCC[C@H]43)[C@H](O)CN(CC(C)C)S(=O)(=O)c3ccc4c(c3)OCO4)cc2)cs1 [GW0385, reference compound] 8.49

Fill blank: measured pIC50 of the compound Cc1nc(COc2ccc(C[C@H](NC(=O)O[C@H]3CO[C@H]4OCC[C@H]43)[C@H](O)CN(CC(C)C)S(=O)(=O)c3ccc4occc4c3)cc2)cs1 [Compound D] is ____. 8.38

====

assay: In vivo bioavailability, rat; conditions: in vivo, po, 20 mg/kg p.o.
EXPERIMENTAL READOUT: Tmax (min)
Write it as a number; the unit min goes unstated.

Please look up its Tmax: "Cc1nc(COc2ccc(C[C@H](NC(=O)O[C@H]3CO[C@H]4OCC[C@H]43)[C@H](O)CN(CC(C)C)S(=O)(=O)c3ccc4occc4c3)cc2)cs1" 39.6

Values compiled from patent US8389571B2.
